Assay Protocol: Resazurin cytotoxicity assay in CYP1B1-transfected HEK293T cells
Format: cell-based
Assay Conditions: human, HEK293T cells transfected with CYP1B1
Property Label: IC50 at 72 h
A bare number is not enough; add the unit after it.

Problem: Which measured IC50 at 72 h value corresponds to CONC(=N)c1ccc(-c2ccc(-c3ccc(C(=N)NOC)cn3)o2)cc1 ?
Result: 38.8 µM

---

Assay Protocol: Resazurin cytotoxicity assay in wild-type HEK293T cells
Type: cell-based
Assay Conditions: human
Property Label: IC50 at 72 h (µM)
Write the answer as a number in µM, unit excluded.

Problem: Reported IC50 at 72 h for CONC(=N)c1ccc(-c2ccc(-c3ccc(C(=N)NOC)cn3)o2)cc1 : what is it?
Result: 37.9
